Reference source: patent US20090170846A1

Provide the reported IC50 of each item.
- subject of test: Full-length wild type HIV-1 integrase (SF1) (Human immunodeficiency virus type 1 group M subtype B)
- Construct: made in house; host or cells: E. coli BL21 (DE3)
- assay notes: Integrase strand-transfer scintillation proximity assay
- Assay type: biochemical
- condition label: integrase strand-transfer SPA; read-out: IC50
- Text: Integrase Strand-Transfer Scintillation Proximity Assay Oligonucleotides: Oligonucleotide #1-5′-(biotin)[…]-3′ (SEQ ID NO: 1) and oligonucleotide #2-5′-[…]-3′ (SEQ ID NO: 2), were synthesized by TriLink BioTechnologies, Inc. (San Diego, Calif.). The annealed product represents preprocessed viral ds-DNA derived from the LTR U5 sequence of the viral genome. […]
Answers are plain numbers, in nM.

Known results for molecules:
Ask: Using known records, supply IC50 for CN(O)C(=O)c1cc2c(NS(C)(=O)=O)cn(Cc3ccc(F)cc3)c2cn1 [Example 6]
Result: 270

Ask: Using known records, supply IC50 for O=C(CC(NC(=O)c1cn(Cc2ccc(F)cc2)c2cnc(C(=O)NO)cc12)C1CC1)NC1CC1 (stereo not shown) [Example 24]
Result: 16

Ask: Using known records, supply IC50 for CC(=O)Nc1cn(Cc2ccc(F)cc2)c2cnc(C(=O)NO)cc12 [Example 1]
Result: 130

Note: attention shifts to another entry.
Ask: Using known records, supply IC50 for CN(O)C(=O)c1cc2c(NS(=O)(=O)c3ccccc3)cn(Cc3ccc(F)cc3)c2cn1 [Example 4]
Result: 360

====

- subject of test: Full-length wild type HIV-1 integrase (SF1) (Human immunodeficiency virus type 1 group M subtype B)
- Construct: made in house; host or cells: E. coli BL21 (DE3)
- assay notes: Integrase strand-transfer scintillation proximity assay
- Format: biochemical
- condition label: integrase strand-transfer SPA; read-out: IC50
- Source text: Integrase Strand-Transfer Scintillation Proximity Assay Oligonucleotides: Oligonucleotide #1-5′-(biotin)[…]-3′ (SEQ ID NO: 1) and oligonucleotide #2-5′-[…]-3′ (SEQ ID NO: 2), were synthesized by TriLink BioTechnologies, Inc. (San Diego, Calif.). The annealed product represents preprocessed viral ds-DNA derived from the LTR U5 sequence of the viral genome. […]
quantity: pIC50
One number for each entry, as −log10 of the molar value.

Ask: Using known records, supply pIC50 for O=C(NO)c1cc2c(NS(=O)(=O)Cc3ccccc3)cn(Cc3ccc(F)cc3)c2cn1 [Example 19]
Result: 6.98

Ask: Using known records, supply pIC50 for CN(O)C(=O)c1cc2c(C(=O)NC(CC(=O)NC3CC3)C3CC3)cn(Cc3ccc(F)cc3)c2cn1 (stereo not shown) [Example 18]
Result: 6.64

Ask: Using known records, supply pIC50 for CN(O)C(=O)c1cc2c(C(=O)NCCN3CCOCC3)cn(Cc3ccc(F)cc3)c2cn1 [Example 32]
Result: 6.30

Note: attention shifts to another entry.
Ask: Using known records, supply pIC50 for CN(O)C(=O)c1cc2c(C(=O)NCC34CCCN3CCC4)cn(Cc3ccc(F)cc3)c2cn1 [Example 14]
Result: 5.59

====

- subject of test: Full-length wild type HIV-1 integrase (SF1) (Human immunodeficiency virus type 1 group M subtype B)
- Construct: made in house; host or cells: E. coli BL21 (DE3)
- assay notes: Integrase strand-transfer scintillation proximity assay
- Format: biochemical
- condition label: integrase strand-transfer SPA; read-out: IC50
quantity: pIC50
Give bare numbers, as −log10 of the molar value.

Known results for compounds:
Ask: Using known records, supply pIC50 for `CN(O)C(=O)c1cc2c(C(=O)NCC(F)F)cn(Cc3ccc(F)cc3)c2cn1`
Result: 6.61

Ask: Using known records, supply pIC50 for `O=C(NO)c1cc2c(S(=O)(=O)NCCN3CCOCC3)cn(Cc3ccc(F)cc3F)c2cn1`
Result: 6.79

Ask: Using known records, supply pIC50 for `NC(=O)[C@@H]1CCCN1S(=O)(=O)c1cn(Cc2ccc(F)cc2F)c2cnc(C(=O)NO)cc12`
Result: 6.71

Give me pIC50 for each of these compounds, listed below.
1. CONC(=O)c1cc2c(S(=O)(=O)NCCN3CCOCC3)cn(Cc3ccc(F)cc3F)c2cn1
2. CONC(=O)c1cc2c(C(=O)N3CCCC(CO)C3)cn(Cc3ccc(F)cc3)c2cn1 (centres unmarked)
3. CN(O)C(=O)c1cc2c(S(=O)(=O)N(C)C)cn(Cc3ccc(F)cc3)c2cn1
4. CN(O)C(=O)c1cc2c(C(=O)N3CCCC(CO)C3)cn(Cc3ccc(F)cc3)c2cn1 (centres unmarked)
5. CC(C)NC(=O)c1cn(Cc2ccc(F)cc2)c2cnc(C(=O)N(C)O)cc12

Result:
[6.12, 6.43, 5.99, 6.49, 6.69]
